Where a name gives a salt, the structure may show the parent alone.
Reported melting point values for the following compounds.

CSc1ccc(Cl)c(C(=O)NC(c2ccccc2)C23CC(CN2)C3)c1 (racemic); 115 to 117 °C

query: Can you share its melting point? I mean this compound: Cc1cccc(C(NC(=O)c2cccc(C(F)(F)F)c2Cl)C23CC(CN2)C3)c1 (racemic) (as salt: HCl)
result: 159.5 to 160.5 °C

query: And what about the compound O=C(NC(c1ccccc1)C12CC(CN1)C2)c1c(Cl)ccc(C(F)(F)F)c1Cl (racemic) ?
result: 80.5 to 81.5 °C

query: Same lookup for Nc1ccc(C(NC(=O)c2cccc(C(F)(F)F)c2Cl)C23CC(CN2)C3)cc1 (racemic) (as salt: HCl) , please.
result: 195 to 197 °C

query: Now consider Cc1ccc(F)c(C(=O)NC(c2ccccc2)C23CC(CN2)C3)c1Cl (racemic) and answer again.
result: 123 to 124 °C

query: Entry to check: CCc1ccccc1C(=O)NC(c1ccccc1)C12CC(CN1CC)C2 (racemic) (as salt: HCl)
result: 241 to 242 °C

query: Now this one: O=C(NC(c1ccc(F)cc1)C12CC(CN1)C2)c1cccc(C(F)(F)F)c1Cl (racemic)
result: 172.5 to 173 °C
